Test system: DRB-sensitive runoff transcription in HeLa nuclear extract (P-TEFb-like activity)
EXPERIMENTAL DETAILS: Pulse-chase transcription in HeLa nuclear extract
Assay type: biochemical, human
CONDITION SUMMARY: HeLa NE, 2 min pulse/45 sec chase; read-out: 50% inhibition point of appearance of runoff
MEASURED PROPERTY: IC50
# answer = value followed by unit

Ask | Look up IC50 for this compound: CNCCNS(=O)(=O)c1cccc2cnccc12
Reply | 20 µM
